- ASSAY_TEXT: TLR3 IRF3 reporter activation blockers – cell-based, poly I:C stimulus, luciferase, 10K MLSCN set, primary screen (AID 602277)
- APPLIED_CONDITIONS: HEK293-TLR3 RL24 IRF3 luciferase reporter, at 10 µM, active compounds read high
Exercise: state measured inhibition for each of the compounds provided.
Expressed in %, but write only the number.

Give the measured inhibition for Cc1ccc2c(c1C)NC(C)CC2C (stereo not given)
13.6

Give the measured inhibition for CN(C(=O)COC(=O)C1CCN(S(=O)(=O)c2cccs2)CC1)C1CCS(=O)(=O)C1 (stereo not given)
1.49

Give the measured inhibition for "O=C(c1ccco1)N1CCN(C(=O)c2ccc(Cn3cc(Br)cn3)o2)CC1"
12.9

Give the measured inhibition for "CC(=O)O[C@]1(C(C)=O)CC[C@H]2[C@@H]3C=C(Cl)C4=CC(=O)CC[C@]4(C)[C@H]3CC[C@@]21C"
38.2

Give the measured inhibition for "CCNc1nc(N2CCCCC2)nc(-n2nnc(C(=O)OCC)c2C)n1"
4.91
